- Tested on: rCaCh
- experiment: CVS / cardio tox rCaCh
- Format: binding, rat

[
  {
    "compound": "Cc1c(-c2cc3cc(-c4ccc(OC(F)(F)F)cc4)ccn3c2)[nH]c2ccccc2c1=O [Compound 25]",
    "experimental-system": "rCaCh",
    "Cardio tox rCaCh IC50 (µM)": ">10, >10, >10"
  },
  {
    "compound": "Cc1c(-c2nc3ccc(-c4ccc(OC(F)(F)F)nc4)cn3n2)[nH]c2ccccc2c1=O [Compound 26]",
    "experimental-system": "rCaCh",
    "Cardio tox rCaCh IC50 (µM)": ">10, >10, >10"
  },
  {
    "compound": "Cc1c(-c2nc3ccc(-c4cccc(F)c4)cn3n2)[nH]c2ccccc2c1=O [Compound 12]",
    "experimental-system": "rCaCh",
    "Cardio tox rCaCh IC50 (µM)": "> 10"
  },
  {
    "compound": "Cc1c(-c2nc3ccc(-c4ccc(C(F)(F)F)cc4)cn3n2)[nH]c2ccccc2c1=O [Compound 4]",
    "experimental-system": "rCaCh",
    "Cardio tox rCaCh IC50 (µM)": "> 10"
  },
  {
    "compound": "Cc1c(-c2nc3ccc(C(F)(F)F)cn3n2)[nH]c2ccccc2c1=O [Compound 19]",
    "experimental-system": "rCaCh",
    "Cardio tox rCaCh IC50 (µM)": ">10, >10, >10"
  },
  {
    "compound": "Cc1c(-c2cc3ccc(-c4ccc(OC(F)(F)F)cc4)cn3c2)[nH]c2ccccc2c1=O [Compound 22]",
    "experimental-system": "rCaCh",
    "Cardio tox rCaCh IC50 (µM)": "> 10"
  },
  {
    "compound": "COc1cc2[nH]c(-c3nc4ccc(-c5ccc(OC(F)(F)F)cc5)cn4n3)c(C)c(=O)c2cc1OC [Compound 70]",
    "experimental-system": "rCaCh",
    "Cardio tox rCaCh IC50 (µM)": ">10, >10, >10"
  },
  {
    "compound": "Cc1c(-c2nc3ccc(F)cn3n2)[nH]c2ccccc2c1=O [Compound 33]",
    "experimental-system": "rCaCh",
    "Cardio tox rCaCh IC50 (µM)": ">10, >10, >10"
  }
]

###

- experimental-system: hERG (Homo sapiens)
- Sequence (Q12809 whole entry): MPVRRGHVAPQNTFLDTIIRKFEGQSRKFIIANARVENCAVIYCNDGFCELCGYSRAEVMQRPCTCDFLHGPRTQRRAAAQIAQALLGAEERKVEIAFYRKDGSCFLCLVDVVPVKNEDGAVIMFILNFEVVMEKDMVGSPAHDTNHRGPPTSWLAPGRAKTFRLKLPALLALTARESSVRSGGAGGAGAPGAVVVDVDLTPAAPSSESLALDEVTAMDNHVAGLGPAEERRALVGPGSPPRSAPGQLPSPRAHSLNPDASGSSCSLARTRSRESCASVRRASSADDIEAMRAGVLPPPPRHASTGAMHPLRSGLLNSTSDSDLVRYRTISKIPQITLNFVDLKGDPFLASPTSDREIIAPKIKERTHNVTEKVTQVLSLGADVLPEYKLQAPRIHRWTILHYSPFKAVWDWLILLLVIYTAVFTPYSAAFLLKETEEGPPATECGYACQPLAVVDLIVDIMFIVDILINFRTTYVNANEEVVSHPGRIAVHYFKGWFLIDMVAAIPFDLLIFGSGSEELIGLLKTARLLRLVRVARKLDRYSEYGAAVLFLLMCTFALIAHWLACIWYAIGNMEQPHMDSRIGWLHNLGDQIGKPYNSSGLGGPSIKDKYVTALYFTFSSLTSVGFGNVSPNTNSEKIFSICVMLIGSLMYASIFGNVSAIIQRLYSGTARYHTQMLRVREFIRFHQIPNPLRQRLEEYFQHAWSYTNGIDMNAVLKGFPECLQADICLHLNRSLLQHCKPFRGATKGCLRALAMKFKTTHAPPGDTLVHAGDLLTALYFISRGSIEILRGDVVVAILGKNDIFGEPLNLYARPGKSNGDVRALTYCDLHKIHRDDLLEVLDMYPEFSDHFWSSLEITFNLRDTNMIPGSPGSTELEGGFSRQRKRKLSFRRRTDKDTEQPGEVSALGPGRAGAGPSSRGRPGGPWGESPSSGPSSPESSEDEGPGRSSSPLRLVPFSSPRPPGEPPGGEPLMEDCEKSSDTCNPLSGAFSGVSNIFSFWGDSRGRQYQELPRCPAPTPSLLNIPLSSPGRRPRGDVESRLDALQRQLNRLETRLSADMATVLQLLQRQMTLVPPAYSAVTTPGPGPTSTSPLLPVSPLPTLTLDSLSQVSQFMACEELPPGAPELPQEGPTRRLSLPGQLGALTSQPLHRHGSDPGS
- experiment: CVS / cardio tox hERG (DOF)
- Format: binding
- condition-info: CVS; read-out: hERG IC50
pIC50: −log10 of the molar value.
endpoint-name: pIC50

[
  {
    "input-smiles": "Cc1c(-c2nc3ccc(-c4ccc(OC(F)(F)F)cc4)cn3n2)[nH]c2ccccc2c1=O",
    "result": "< 5.00"
  }
]

###

- Test system: Mitochondrial toxicity (Glu/Gal)
- experiment: Mitochondrial toxicity (Glu/Gal) assay
- Format: cell-based
- condition-info: ratio glu/gal

[
  {
    "input-smiles": "Cc1c(-c2cn3ccc(Oc4ccc(OC(F)(F)F)cc4)cc3n2)[nH]c2ccccc2c1=O",
    "experimental-system": "Mitochondrial toxicity (Glu/Gal)",
    "Δ IC50,glu/IC50,gal": 1.5
  },
  {
    "input-smiles": "Cc1c(-c2nc3ccc(Br)cn3n2)[nH]c2c(F)cc(F)cc2c1=O",
    "experimental-system": "Mitochondrial toxicity (Glu/Gal)",
    "Δ IC50,glu/IC50,gal": "[x]0"
  },
  {
    "input-smiles": "Cc1c(-c2nc3ccc(-c4cccc(OC(F)(F)F)c4)cn3n2)[nH]c2ccccc2c1=O",
    "experimental-system": "Mitochondrial toxicity (Glu/Gal)",
    "Δ IC50,glu/IC50,gal": "[x]0"
  },
  {
    "input-smiles": "Cc1c(-c2nc3ccc(-c4cn(CC(F)(F)F)nn4)cn3n2)[nH]c2ccccc2c1=O",
    "experimental-system": "Mitochondrial toxicity (Glu/Gal)",
    "Δ IC50,glu/IC50,gal": "[x]0"
  }
]

###

- System: Mitochondrial toxicity (Glu/Gal)
- experiment: Mitochondrial toxicity (Glu/Gal) assay
- Assay type: cell-based
- condition-info: ratio glu/gal
endpoint-name: Δ IC50,glu/IC50,gal

[
  {
    "compound": "Cc1c(-c2nc3cc(Br)ccn3n2)[nH]c2ccccc2c1=O [Compound 39]",
    "result": "[x]0"
  },
  {
    "compound": "Cc1c(-c2cn3cc(Oc4ccc(OC(F)(F)F)cc4)ccc3n2)[nH]c2ccccc2c1=O [Compound 44]",
    "result": 0.8
  },
  {
    "compound": "Cc1c(-c2nc3ccc(-c4cccc(F)c4)cn3n2)[nH]c2ccccc2c1=O [Compound 12]",
    "result": "[x]0"
  },
  {
    "compound": "Cc1c(-c2nc3ccc(C(F)(F)F)cn3n2)[nH]c2ccccc2c1=O [Compound 19]",
    "result": "[x]0"
  },
  {
    "compound": "Cc1c(-c2cn3cc(Cc4ccc(OC(F)(F)F)cc4)ccc3n2)[nH]c2ccccc2c1=O [Compound 63]",
    "result": ">1.7"
  },
  {
    "compound": "Cc1c(-c2nc3cc(C(F)(F)F)c(-c4ccccc4)cn3n2)[nH]c2ccccc2c1=O [Compound 21]",
    "result": "[x]0"
  },
  {
    "compound": "Cc1c(-c2nc3ccc(-c4cnn(CC(F)(F)F)c4)cn3n2)[nH]c2ccccc2c1=O [Compound 81]",
    "result": "[x]0"
  },
  {
    "compound": "COc1ccc2[nH]c(-c3nc4ccc(Br)cn4n3)c(C)c(=O)c2c1 [Compound 68]",
    "result": "[x]0"
  },
  {
    "compound": "Cc1ccc(-c2ccc3nc(-c4[nH]c5ccccc5c(=O)c4C)nn3c2)cc1F [Compound 124]",
    "result": "[x]0"
  },
  {
    "compound": "Cc1c(-c2nc3ccc(N4CCN(CC(F)(F)F)CC4)cn3n2)[nH]c2ccccc2c1=O [Compound 16]",
    "result": "[x]0"
  },
  {
    "compound": "Cc1c(-c2nc3ccc(OCC(F)(F)F)cn3n2)[nH]c2ccccc2c1=O [Compound 77]",
    "result": "[x]0"
  },
  {
    "compound": "Cc1c(-c2nc3ccc(-c4c[nH]nn4)cn3n2)[nH]c2ccccc2c1=O [Compound 60]",
    "result": "[x]0"
  },
  {
    "compound": "COc1ccc2[nH]c(-c3nc4ccc(-c5ccc(OC(F)(F)F)cc5)cn4n3)c(C)c(=O)c2c1Cl [Compound 80]",
    "result": "[x]0"
  }
]

###

Here the recorded pIC50 is given for each entry.
- experimental-system: hERG (Homo sapiens)
- experiment: CVS / cardio tox hERG (DOF)
- Format: binding
- condition-info: DOF; read-out: Cardio tox hERG(DOF) (IC50)
pIC50: −log10 of the molar value.
endpoint-name: pIC50

[
  {
    "compound": "Cc1c(-c2nc3ccc(F)cn3n2)[nH]c2ccccc2c1=O [Compound 33]",
    "result": "< 5.00"
  },
  {
    "compound": "Cc1c(-c2nc3ccc(Br)cn3n2)[nH]c2ccccc2c1=O [Compound 55]",
    "result": "< 5.00"
  },
  {
    "compound": "Cc1c(-c2nc3ccc(-c4cccc(F)c4)cn3n2)[nH]c2ccccc2c1=O [Compound 12]",
    "result": "< 5.52"
  },
  {
    "compound": "Cc1c(-c2cn3ccc(Cc4ccc(OC(F)(F)F)cc4)cc3n2)[nH]c2ccccc2c1=O [Compound 52]",
    "result": "< 5.00"
  }
]

###

- System: Mitochondrial toxicity (Glu/Gal)
- experiment: Mitochondrial toxicity (Glu/Gal) assay
- Assay type: cell-based
- Set-up: key: “negative” means that in the test, it was found to have low mitotoxicity (and hence no mitotoxicity alerts); “positive” means that there were some mitotoxicity alerts; “inconclusive” means that no accurate conclusion could be drawn
- condition-info: mitotoxicity score

[
  {
    "input-smiles": "Cc1c(-c2nc3ccc(-c4cnc(C(F)(F)F)s4)cn3n2)[nH]c2ccccc2c1=O",
    "experimental-system": "Mitochondrial toxicity (Glu/Gal)",
    "Score": "negative"
  },
  {
    "input-smiles": "Cc1c(-c2nc3ccc(-c4nc(C(F)(F)F)cs4)cn3n2)[nH]c2ccccc2c1=O",
    "experimental-system": "Mitochondrial toxicity (Glu/Gal)",
    "Score": "negative"
  },
  {
    "input-smiles": "CNC(=O)c1c(-c2nc3ccc(-c4nc(C(F)(F)F)cs4)cn3n2)[nH]c2ccccc2c1=O",
    "experimental-system": "Mitochondrial toxicity (Glu/Gal)",
    "Score": "negative"
  },
  {
    "input-smiles": "CN(C)C(=O)c1c(-c2nc3ccc(-c4ccc(OC(F)(F)F)cc4)cn3n2)[nH]c2ccccc2c1=O",
    "experimental-system": "Mitochondrial toxicity (Glu/Gal)",
    "Score": "inconclusive"
  },
  {
    "input-smiles": "COc1cc2[nH]c(-c3nc4ccc(-c5ccc(OC(F)(F)F)cc5)cn4n3)c(C)c(=O)c2cc1OC",
    "experimental-system": "Mitochondrial toxicity (Glu/Gal)",
    "Score": "inconclusive"
  },
  {
    "input-smiles": "Cc1c(-c2cn3cc(Cc4ccc(OC(F)(F)F)cc4)ccc3n2)[nH]c2ccccc2c1=O",
    "experimental-system": "Mitochondrial toxicity (Glu/Gal)",
    "Score": "inconclusive"
  },
  {
    "input-smiles": "Cc1c(-c2cn3cc(Oc4ccc(OC(F)(F)F)cc4)ccc3n2)[nH]c2ccccc2c1=O",
    "experimental-system": "Mitochondrial toxicity (Glu/Gal)",
    "Score": "negative"
  },
  {
    "input-smiles": "COc1cc(OC)cc(-c2ccc3nc(-c4[nH]c5ccccc5c(=O)c4C)nn3c2)c1",
    "experimental-system": "Mitochondrial toxicity (Glu/Gal)",
    "Score": "inconclusive"
  }
]
